fluorescence slope values for the molecules below.
- Experimental Target: Voltage-gated potassium channel subunit beta-2 (Rattus norvegicus) (UniProt P62483)
- Sequence (P62483 whole entry, looked up): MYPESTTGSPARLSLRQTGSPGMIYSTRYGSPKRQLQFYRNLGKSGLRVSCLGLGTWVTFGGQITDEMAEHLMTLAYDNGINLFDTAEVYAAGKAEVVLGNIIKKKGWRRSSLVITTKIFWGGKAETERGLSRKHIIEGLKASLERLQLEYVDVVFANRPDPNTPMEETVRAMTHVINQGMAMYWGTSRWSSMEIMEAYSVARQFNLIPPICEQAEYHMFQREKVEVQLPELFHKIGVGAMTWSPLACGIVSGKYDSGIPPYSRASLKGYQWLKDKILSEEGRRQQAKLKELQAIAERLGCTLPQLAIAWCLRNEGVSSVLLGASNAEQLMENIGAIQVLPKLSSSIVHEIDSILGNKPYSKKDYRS
- Procedure Details: inhibitors of rat Kvbeta2 reductase activity – biochemical, NADPH fluorescence, primary screen (AID 622);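 note: slope of raw intensity against log time taken from 70 to 1610 s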
- Condition Info: recombinant KvBeta, 4-cyanobenzaldehyde reduction, at 10 µM, stronger effect = higher value
Answer using only a numeral; do not append any unit.

Solved entries (count: 2):
COc1ccc(-n2c(Cc3cccn3C)nnc2SCC(=O)Nc2ccc(Cl)cc2)cc1	-0.567
COc1ccc(C(=O)Nc2nncs2)c(OC)c1	-0.631

Here is the next item to consider.
Request - read-out fluorescence slope | tested on Voltage-gated potassium channel subunit beta-2 (Rattus norvegicus) (UniProt P62483) | molecule `O=C(CCc1nc2ccccc2s1)OCC(=O)N1CCN(C(=O)c2ccco2)CC1` -0.584

Measured values drawn from PubChem BioAssay for this set.
